# protocolDescription: Solubility of the compound at pH 7.4
# Type: physicochemical
# runParameters: buffer
Assign solubility to each entry below.
Give the value in µg/mL but do not write µg/mL after it.

Hello, please tell me recorded solubility for this one: "Cc1ccc(C(=O)c2cc(O)c(O)c([N+](=O)[O-])c2)cc1"
115

Hello, please tell me recorded solubility for this one: "NCC1(CC(=O)O)CCCCC1"
441

----------
# protocolDescription: Solubility of the compound in water
# Assay type: physicochemical
Classify as follows. Reported solubility greater than or equal to 0.3 mg/mL: YES. Reported solubility below: NO.

Textbook exercise: given the entry O=C1Nc2ccc(Cl)cc2C(c2ccccc2Cl)=NC1O (stereo not drawn) , state whether its solubility is greater than or equal to 0.3 mg/mL.
NO

Textbook exercise: given the entry "Nc1c2c(nc3ccccc13)CCCC2" , state whether its solubility is greater than or equal to 0.3 mg/mL.
NO

Textbook exercise: given the entry "O=C1NC(=O)C(c2ccccc2)(c2ccccc2)N1" , state whether its solubility is greater than or equal to 0.3 mg/mL.
NO

Textbook exercise: given the entry CC1(C)O[C@@H]2[C@@H](CO[C@@]3(COS(N)(=O)=O)OC(C)(C)O[C@@H]23)O1 [TOPIRAMATE] , state whether its solubility is greater than or equal to 0.3 mg/mL.
YES

Textbook exercise: given the entry "O=C1CN=C(c2ccccc2Cl)c2cc([N+](=O)[O-])ccc2N1" , state whether its solubility is greater than or equal to 0.3 mg/mL.
NO

Textbook exercise: given the entry "CC[C@@H](C(N)=O)N1CCCC1=O" , state whether its solubility is greater than or equal to 0.3 mg/mL.
YES

----------
# protocolDescription: Solubility of the compound in water at pH 7
# Assay type: physicochemical
assayEndpoint: solubility
Give the number first and the unit second.

Hello, please tell me recorded solubility for this one: "Cc1nnc2n1-c1ccc(Cl)cc1C(c1ccccc1)=NC2"
40 µg/mL

----------
# protocolDescription: Solubility of the compound
# Format: physicochemical
assayEndpoint: solubility

Hello, please tell me recorded solubility for this one: CCCN[C@H]1CCc2nc(N)sc2C1 [PRAMIPEXOLE]
> 10000 µg/mL

Hello, please tell me recorded solubility for this one: "O=C1Cc2cc(CCN3CCN(c4nsc5ccccc45)CC3)c(Cl)cc2N1"
0.08 µg/mL

----------
# protocolDescription: Solubility of the compound in 0.1 M phosphate buffer at 600 uM at pH 7.4 after 24 hrs by LC/MS/MS analysis
# runParameters: 0.1 M phosphate buffer, pH 7.4
Classify as follows. Reported solubility at 24 h, 600 µM greater than or equal to 40 µM: Met. Reported solubility at 24 h, 600 µM below: Not met.

Textbook exercise: given the entry CN1C[C@H](C(=O)N[C@]2(C)O[C@@]3(O)[C@@H]4CCCN4C(=O)[C@H](Cc4ccccc4)N3C2=O)C[C@@H]2c3cccc4[nH]cc(c34)C[C@H]21 [DIHYDROERGOTAMINE] , state whether its solubility at 24 h, 600 µM is greater than or equal to 40 µM.
Not met

Textbook exercise: given the entry "COc1ccc(C(=O)N2CCCC2=O)cc1" , state whether its solubility at 24 h, 600 µM is greater than or equal to 40 µM.
Met

Textbook exercise: given the entry "O=C1CC2(CCCC2)CC(=O)N1CCCCN1CCN(c2ncccn2)CC1" , state whether its solubility at 24 h, 600 µM is greater than or equal to 40 µM.
Met

Textbook exercise: given the entry "OC[C@@H](O)CN1CCN(c2ccccc2)CC1" , state whether its solubility at 24 h, 600 µM is greater than or equal to 40 µM.
Met

Textbook exercise: given the entry CCN(CC)C(=O)C1(c2ccccc2)CC1CN (stereo not given) , state whether its solubility at 24 h, 600 µM is greater than or equal to 40 µM.
Met

Textbook exercise: given the entry "CN(C)CCC[C@@]1(c2ccc(F)cc2)OCc2cc(C#N)ccc21" , state whether its solubility at 24 h, 600 µM is greater than or equal to 40 µM.
Met

Textbook exercise: given the entry C=CCN1CCc2nc(N)sc2CC1 [TALIPEXOLE] , state whether its solubility at 24 h, 600 µM is greater than or equal to 40 µM.
Met

Textbook exercise: given the entry "Cc1nc2n(c(=O)c1CCN1CCC(c3noc4cc(F)ccc34)CC1)CCCC2" , state whether its solubility at 24 h, 600 µM is greater than or equal to 40 µM.
Met

Textbook exercise: given the entry "O=C1NCCN1CCN1CCC(c2cn(-c3ccc(F)cc3)c3ccc(Cl)cc23)CC1" , state whether its solubility at 24 h, 600 µM is greater than or equal to 40 µM.
Not met

Textbook exercise: given the entry CN1CCN2c3ncccc3Cc3ccccc3C2C1 (stereo not given) , state whether its solubility at 24 h, 600 µM is greater than or equal to 40 µM.
Met

Textbook exercise: given the entry CCN1CCCC1CNC(=O)c1cc(S(=O)(=O)CC)c(N)cc1OC (stereo not given) [AMISULPRIDE] , state whether its solubility at 24 h, 600 µM is greater than or equal to 40 µM.
Met

Textbook exercise: given the entry O=C(O)C1N=C(c2ccccc2)c2cc(Cl)ccc2NC1=O (stereo not given) [CLORAZEPIC ACID] , state whether its solubility at 24 h, 600 µM is greater than or equal to 40 µM.
Met

Textbook exercise: given the entry O=C(c1ccccc1)c1ccc2n1CCC2C(=O)O (stereo not given) , state whether its solubility at 24 h, 600 µM is greater than or equal to 40 µM.
Met

Textbook exercise: given the entry COCC1CN=C(c2ccccc2Cl)c2cc(Br)ccc2N1C (stereo not given) , state whether its solubility at 24 h, 600 µM is greater than or equal to 40 µM.
Not met

Textbook exercise: given the entry "Cc1nnc2n1-c1ccc(Cl)cc1C(c1ccccc1Cl)=NC2" , state whether its solubility at 24 h, 600 µM is greater than or equal to 40 µM.
Not met

Textbook exercise: given the entry CC(NC(C)(C)C)C(=O)c1cccc(Cl)c1 (stereo not given) , state whether its solubility at 24 h, 600 µM is greater than or equal to 40 µM.
Met

Textbook exercise: given the entry "COC1=C(OC)C(=O)C(CCCCCCCCCCO)=C(C)C1=O" , state whether its solubility at 24 h, 600 µM is greater than or equal to 40 µM.
Not met

Textbook exercise: given the entry "CCOC(=O)Nc1ccc(NCc2ccc(F)cc2)nc1N" , state whether its solubility at 24 h, 600 µM is greater than or equal to 40 µM.
Met

Textbook exercise: given the entry CCOc1ccccc1OC(c1ccccc1)C1CNCCO1 (stereo not given) , state whether its solubility at 24 h, 600 µM is greater than or equal to 40 µM.
Met

Textbook exercise: given the entry CN(C)CCCC1(c2ccc(F)cc2)OCc2cc(C#N)ccc21 (stereo not given) , state whether its solubility at 24 h, 600 µM is greater than or equal to 40 µM.
Met

----------
# protocolDescription: Solubility of the compound in 0.1 M phosphate buffer at 600 uM at pH 7.4 after 24 hrs by LC/MS/MS analysis
# runParameters: 0.1 M phosphate buffer, pH 7.4
assayEndpoint: solubility at 24 h, 600 µM (µM)
Give the value in µM but do not write µM after it.

Hello, please tell me recorded solubility at 24 h, 600 µM for this one: "O=C1CCc2ccc(OCCCCN3CCN(c4cccc(Cl)c4Cl)CC3)cc2N1"
1.03

Hello, please tell me recorded solubility at 24 h, 600 µM for this one: NC(=O)CCC/N=C(\c1ccc(Cl)cc1)c1cc(F)ccc1O [PROGABIDE]
55.2

Hello, please tell me recorded solubility at 24 h, 600 µM for this one: "CCCN(CCC)C(=O)Cc1c(-c2ccc(Cl)cc2)nc2ccc(Cl)cn12"
0.75

----------
Assign solubility at 24 h, 600 µM to each entry below.
# protocolDescription: Solubility of the compound in 0.1 M phosphate buffer at 600 uM at pH 7.4 after 24 hrs by LC/MS/MS analysis
# runParameters: 0.1 M phosphate buffer, pH 7.4
Give the value in µM but do not write µM after it.

Hello, please tell me recorded solubility at 24 h, 600 µM for this one: Cc1ccc(-c2nc3ccc(C)cn3c2CC(=O)N(C)C)cc1 [ZOLPIDEM]
260

Hello, please tell me recorded solubility at 24 h, 600 µM for this one: CCc1nn(CCCN2CCN(c3cccc(Cl)c3)CC2)c(=O)n1CCOc1ccccc1 [NEFAZODONE]
9.9

Hello, please tell me recorded solubility at 24 h, 600 µM for this one: CCCCN1CCCCC1C(=O)Nc1c(C)cccc1C (stereo not given) [BUPIVACAINE]
352

Hello, please tell me recorded solubility at 24 h, 600 µM for this one: Nc1nnc(-c2cccc(Cl)c2Cl)c(N)n1 [LAMOTRIGINE]
307
